# Tested on: DMS-114
# TEST_SUMMARY: NCI tumour cell line growth inhibition, 48 h
Activity calls are given as the source filed them. Cut-off read from the data, not from the text of the source: active = GI50 up to about 1.1 µM and inactive = higher.
GI50 values by entry
MEASURED_QUANTITY: GI50

>>> result("ClC/C=C/COC1CCCCO1 (configuration not stated)")
"33.2 µM (inactive)"
>>> result("CCOC(=O)c1cn(Cc2ccccc2)c(=O)n1Cc1ccccc1")
"94 µM (inactive)"
>>> result("CCC1CNC(=O)CC1CC(=O)OC (configuration not stated)")
"> 100 µM (inactive)"
>>> result("CC(=O)/C(=N\\O)C(=O)Nc1ccc(Cl)cc1Cl")
"> 100 µM (inactive)"
>>> result("COc1cc(C)c(CC/C(C)=C/Cc2cc(O)ccc2O)c(C)c1C [PANICEIN A HYDROQUINONE]")
"> 25 µM (inactive)"
>>> result("CCCCCCCCOCC(O)COC (configuration not stated)")
"> 100 µM (inactive)"
>>> result("COC(=O)N/N=C(/CCC(=O)Nc1ccc(C)c(C)c1)CC(=O)C(C)(C)C")
"> 100 µM (inactive)"
>>> result("COc1cc2cc3c4cc(OC)c(OC)cc4cc[n+]3c(C)c2cc1OC.O=C([O-])CS(=O)(=O)O")
"3.34 µM (inactive)"
>>> result("COC(OC)c1cccc2c1C(=O)CCC1(CC2)OCCCCO1")
"> 100 µM (inactive)"
>>> result("N#Cc1cc([N+](=O)[O-])ccc1NC(=O)/C(=N\\NC(=O)c1ccncc1)C(c1cnc2ccc([N+](=O)[O-])cc2n1)[N+](=O)[O-] (configuration not stated)")
"1.6 µM (inactive)"
>>> result("CC1=NN(C(=O)Cc2ccccc2)C(=O)/C1=C\\c1ccc([N+](=O)[O-])cc1")
"> 100 µM (inactive)"
>>> result("COc1ccc2c(c1)C(=O)C1CC(=O)CCC21 (configuration not stated)")
"> 100 µM (inactive)"
>>> result("N#CC(C#N)=CSc1ccccc1")
"17.7 µM (inactive)"
>>> result("NC(=O)OCC(COc1ccc(Cl)cc1)OC(=O)c1cc([N+](=O)[O-])cc([N+](=O)[O-])c1 (configuration not stated)")
"35.1 µM (inactive)"
>>> result("OCc1cc2c(cn1)[nH]c1ccc(NCc3ccccc3)cc12")
"15.6 µM (inactive)"
>>> result("CCN(CC)CCO[Si](OCCN(CC)CC)(OCCN(CC)CC)OCCN(CC)CC")
"> 100 µM (inactive)"
>>> result("NC1=C(O)c2cccc3cccc(c23)C1=O")
"> 100 µM (inactive)"
>>> result("O=C(Nc1ccc(Cl)c(Cl)c1)C(=O)C(C(=O)c1ccccc1F)C1OC(=O)c2ccccc21 (configuration not stated)")
"18.7 µM (inactive)"
>>> result("CC1CC(c2ccccc2)=Nc2ccccc2S1 (configuration not stated)")
"> 100 µM (inactive)"
>>> result("COc1ccc(/C=C/c2nnc(S)[nH]2)cc1OC")
"> 100 µM (inactive)"
>>> result("N=C1NC(=O)N2CC12 (configuration not stated) [IMEXON]")
"> 100 µM (inactive)"
>>> result("NS(=O)(=O)c1ccc(NC2=CC(=O)C(=O)c3ccccc32)cc1")
"43.2 µM (inactive)"
>>> result("CCOC(=O)C[C@@]12CCCNC1(C)CCc1ccccc12 (some centres not stated)")
"> 100 µM (inactive)"
>>> result("Nc1nc2c(ncn2CC(CO)CC(c2ccccc2)P(=O)(O)O)c(=O)[nH]1 (configuration not stated)")
"> 100 µM (inactive)"
>>> result("CC1(C)CC(c2c[nH]c3ccccc23)=CC2=Nc3ccccc3C21O (configuration not stated)")
"> 100 µM (inactive)"
>>> result("Cc1c(/C=C2\\CC/C(=C\\c3[nH]c(C(=O)OC(C)(C)C)c(C)c3C)C2=O)[nH]c(C(=O)OC(C)(C)C)c1C")
"> 100 µM (inactive)"
>>> result("Cc1nc(Nc2ccc([N+](=O)[O-])cc2)sc1C(/C=C/c1ccc(N(C)C)cc1)=N/NC(=O)c1ccccc1")
"29 µM (inactive)"
